Sourced from patent US20150239950A1

In this section, each of the binders is paired with its reported koff.
# Experimental Target: T1, ActRII-ECD (extracellular domain of mouse ActRII, residues 1-102) (mouse, UniProt P27038 20-135)
# T1 construct: extracellular domain; also called type II receptor ECD
# T1 sequence (P27038 20-135): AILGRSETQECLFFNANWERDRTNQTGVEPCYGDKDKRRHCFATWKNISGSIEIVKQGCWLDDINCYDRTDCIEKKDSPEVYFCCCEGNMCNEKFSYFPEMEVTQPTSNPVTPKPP
# Experiment Notes: SPR (BIAcore), receptor ECD immobilized, ligand flowed; 1:1 Langmuir with mass transfer; single trial
Quick reminder: number only, in s⁻¹, skip the unit.

Examples with answers:
{"Binder": "AB2-004 (1b2a3b4b5a6a activin/BMP-2 chimera) (ligand) MQAKHKQRKRLKSSCKRHPLYVDFSDVGWNDWIIAPSGYHANYCDGECPFPLADHLNSTNHAIVQTLVNSVNSKIPKACCVPTKLRPMSMLYYDDGQNIIKKDIQNMIVEECGCS", "Uom": "s⁻¹", "koff": 0.000187}
{"Binder": "Activin-βA (ligand, also called Activin-A) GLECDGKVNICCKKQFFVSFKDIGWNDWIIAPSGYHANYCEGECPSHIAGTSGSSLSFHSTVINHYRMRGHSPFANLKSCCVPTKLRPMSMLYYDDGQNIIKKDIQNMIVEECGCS", "Uom": "s⁻¹", "koff": 0.000716}
{"Binder": "AB2-015 (1b2a3b4b5b6a activin/BMP-2 chimera) (ligand) MQAKHKQRKRLKSSCKRHPLYVDFSDVGWNDWIIAPSGYHANYCDGECPFPLADHLNSTNHAIVQTLVNSVNSKIPKACCVPTELSAISMLYYDDGQNIIKKDIQNMIVEECGCS", "Uom": "s⁻¹", "koff": 0.000371}

**Q:** Can you share its koff? I mean this binder: AB2-012 (1b2b3b4b5b6a activin/BMP-2 chimera) (ligand) MQAKHKQRKRLKSSCKRHPLYVDFSDVGWNDWIVAPPGYHAFYCHGECPFPLADHLNSTNHAIVQTLVNSVNSKIPKACCVPTELSAISMLYYDDGRNIIKKDIQNMIVEECGCS
**A:** 0.0016

**Q:** Can you share its koff? I mean this binder: AB2-011 (1b2b3b4b5a6a activin/BMP-2 chimera) (ligand) MQAKHQQRKRLKSSCKRHPLYVDFSDVGWNDWIVAPPGYHAFYCHGECPFPLADHLNSTNHAIVQTLVNSVNSKIPKACCVPTKLRPSMLYYDDGQNIIKKDIQNMIVEECGCS
**A:** 0.000339
